In this section, each of the compounds is paired with its reported Vd.
Test: Pharmacokinetics after single intravenous administration to cannulated rats, noncompartmental analysis
Type: in vivo, rat
Conditions: male, Wistar, rat, plasma, iv; read-out: Vz, volume of distribution based on the terminal phase
All answers are understood in L/kg, so give the number only.

COc1ccccc1N1CCN(CCCCCn2cnc3c2c(=O)n(C)c(=O)n3C)CC1 ... 1.7
C[C@@H](O)CCCCn1c(=O)c2c(ncn2C)n(C)c1=O [(R)-LSF, R-lisofylline, reference compound] ... 0.82
CCOc1nc2c(c(=O)n(C)c(=O)n2C)n1CCCC(=O)NN ... 1.43
COC(=O)Cn1c(=O)[nH]c2c1c(=O)n(C)c(=O)n2C ... 0.66
Cn1c(=O)c2c(ncn2CCCCN2CCN(c3cccc(Cl)c3)CC2)n(C)c1=O ... 2.17

Query string: Name the recorded Vd for Cn1c(=O)c2[nH]cnc2n(C)c1=O [Theo, theophylline, reference compound] .
Result string: 0.73

Query string: Name the recorded Vd for `COc1nc2c(c(=O)n(C)c(=O)n2C)n1CCCC(=O)NCc1ccccc1` .
Result string: 0.95

Query string: Name the recorded Vd for CC(=O)CCCCn1c(=O)c2c(ncn2C)n(C)c1=O [PTX, pentoxifylline, reference compound] .
Result string: 1.18

Query string: Name the recorded Vd for `Cn1c(=O)c2c(ncn2CCCCCN2CCN(c3cccc(Cl)c3)CC2)n(C)c1=O` .
Result string: 1.9

Query string: Name the recorded Vd for `Cn1c(=O)c2c(ncn2CCCCCN2CCN(c3ccccc3)CC2)n(C)c1=O` .
Result string: 1.52

###

Assay: Pharmacokinetics after single intravenous administration to cannulated rats, noncompartmental analysis
Assay type: in vivo, rat
Details: male, Wistar, rat, plasma, iv; read-out: t0.5λz, terminal half-life
In this section, each of the compounds is paired with its reported half-life.
All answers are understood in min, so give the number only.

// solved cases for half-life follow
COc1nc2c(c(=O)n(C)c(=O)n2C)n1CCCC(=O)NCc1ccccc1 ... 15.2
CC(=O)CCCCn1c(=O)c2c(ncn2C)n(C)c1=O [PTX, pentoxifylline, reference compound] ... 14.7
Cn1c(=O)c2c(ncn2CCCCN2CCN(c3cccc(Cl)c3)CC2)n(C)c1=O ... 45.4
Cn1c(=O)c2c(ncn2CCCCCN2CCN(c3cccc(Cl)c3)CC2)n(C)c1=O ... 50

Query string: Name the recorded half-life for `COC(=O)Cn1c(=O)[nH]c2c1c(=O)n(C)c(=O)n2C` .
Result string: 6.75

###

In this section, each of the molecules is paired with its reported Vss, volume of distribution at steady-state.
Assay: Pharmacokinetics after single intravenous administration to cannulated rats, noncompartmental analysis
Type: in vivo, rat
Details: male Wistar rats, single i.v. dose (50 mg/kg Theo; 40 mg/kg PTX, LSF; 5 mg/kg GR-1 to GR-5; 2 mg/kg GR-6 to GR-8), geometric mean, n = 4
All answers are understood in L/kg, so give the number only.

C[C@@H](O)CCCCn1c(=O)c2c(ncn2C)n(C)c1=O [(R)-LSF, R-lisofylline, reference compound] ... 0.78
COc1nc2c(c(=O)n(C)c(=O)n2C)n1CCCC(=O)NCc1ccccc1 [GR-7] ... 0.78

Lab note: next molecule to report on.
Query string: Name the recorded Vss, volume of distribution at steady-state for COC(=O)Cn1c(=O)[nH]c2c1c(=O)n(C)c(=O)n2C [GR-8] .
Result string: 0.33
